So I've got a bunch of compounds here, and I need their Reduction values.
organism: Mus musculus; experiment: Maximum reduction in plasma triglyceride levels in KKA mice at a dosage of 0.005% in diet; assay type: functional
API: value field is a number in %; no unit string.

Query (compound): CCc1oc(C)nc1CCOc1ccc(CC2SC(=O)NC2=O)cc1 (configuration not stated) ; field requested: Reduction
45

Query (compound): Cc1nc(C(O)COc2ccc(CC3SC(=O)NC3=O)cc2)c(C)o1 (configuration not stated) ; field requested: Reduction
62

Query (compound): O=C1NC(=O)C(Cc2ccc(OCc3coc(-c4ccccc4)n3)cc2)S1 (configuration not stated) ; field requested: Reduction
51

Query (compound): Cc1nc(C(=O)COc2ccc(CC3SC(=O)NC3=O)cc2)c(C)o1 (configuration not stated) ; field requested: Reduction
27

Query (compound): Cc1oc(-c2ccco2)nc1CCOc1ccc(CC2SC(=O)NC2=O)cc1 (configuration not stated) ; field requested: Reduction
69

Query (compound): CCc1oc(-c2ccccc2)nc1CCOc1ccc(/C=C2\SC(=O)NC2=O)cc1 ; field requested: Reduction
59

Query (compound): Cc1oc(C2(C)CCCCC2)nc1CCOc1ccc(/C=C2\SC(=O)NC2=O)cc1 ; field requested: Reduction
9

Query (compound): Cc1oc(-c2ccccc2)nc1C(O)COc1ccc(/C=C2\SC(=O)NC2=O)cc1 (configuration not stated) ; field requested: Reduction
60

Query (compound): Cc1oc(-c2ccccc2)nc1CCOc1ccc(CC2SC(=O)NC2=O)cc1 (configuration not stated) ; field requested: Reduction
66

Query (compound): Cc1nc(CCOc2ccc(CC3SC(=O)NC3=O)cc2)co1 (configuration not stated) ; field requested: Reduction
42

Query (compound): Cc1nc(C(O)COc2ccc(/C=C3\SC(=O)NC3=O)cc2)c(C)o1 (configuration not stated) ; field requested: Reduction
61

Query (compound): Cc1oc(-c2ccccc2)nc1C(=O)COc1ccc(CC2SC(=O)NC2=O)cc1 (configuration not stated) ; field requested: Reduction
67

* * *

So I've got a bunch of compounds here, and I need their Reduction values.
organism: Mus musculus; test: Maximum reduction in plasma triglyceride levels in KKA mice at a dosage of 0.005% in diet; format: functional
API: value field is a number in %; no unit string.

Query (compound): O=C1NC(=O)C(Cc2ccc(OCCc3csc(-c4ccccc4)n3)cc2)S1 (stereo unspecified) ; field requested: Reduction
63

Query (compound): Cc1oc(-c2ccc(Cl)cc2)nc1CCOc1ccc(/C=C2\SC(=O)NC2=O)cc1 ; field requested: Reduction
58

Query (compound): CSc1cccc(-c2nc(CCOc3ccc(CC4SC(=O)NC4=O)cc3)c(C)o2)c1 (stereo unspecified) ; field requested: Reduction
67

Query (compound): CSc1cccc(-c2nc(CCOc3ccc(/C=C4\SC(=O)NC4=O)cc3)c(C)o2)c1 ; field requested: Reduction
58

Query (compound): CCCc1nc(CCOc2ccc(CC3SC(=O)NC3=O)cc2)co1 (stereo unspecified) ; field requested: Reduction
65

Query (compound): Cc1nc(C(=O)COc2ccc(/C=C3\SC(=O)NC3=O)cc2)c(C)o1 ; field requested: Reduction
29

Query (compound): CCc1oc(-c2ccccc2)nc1CCOc1ccc(CC2SC(=O)NC2=O)cc1 (stereo unspecified) ; field requested: Reduction
79

Query (compound): O=C1NC(=O)C(Cc2ccc(OCc3nc4ccccc4s3)cc2)S1 (stereo unspecified) ; field requested: Reduction
43

Query (compound): Cc1oc(-c2ccccc2)nc1C(=O)COc1ccc(/C=C2\SC(=O)NC2=O)cc1 ; field requested: Reduction
51

Query (compound): Cc1oc(CCOc2ccc(CC3SC(=O)NC3=O)cc2)nc1C1CCCCC1 (stereo unspecified) ; field requested: Reduction
51

Query (compound): Cc1oc(CCOc2ccc(CC3SC(=O)NC3=O)cc2)nc1-c1ccccc1 (stereo unspecified) ; field requested: Reduction
60

* * *

species on record: Mus musculus; assay: Maximum reduction in blood glucose levels in KKA mice at a dosage of 0.005% in diet; assay type: functional
So I've got a bunch of compounds here, and I need their Reduction values.
// return the numeric value with its unit appended

Query (compound): Cc1nc(CCOc2ccc(CC3SC(=O)NC3=O)cc2)c(C)o1 (stereo not given) ; field requested: Reduction
55%

Query (compound): Cc1nc(C(O)COc2ccc(CC3SC(=O)NC3=O)cc2)c(C)o1 (stereo not given) ; field requested: Reduction
51%

Query (compound): CSc1cccc(-c2nc(CCOc3ccc(/C=C4\SC(=O)NC4=O)cc3)c(C)o2)c1 ; field requested: Reduction
52%

Query (compound): O=C1NC(=O)C(Cc2ccc(OCCc3csc(-c4ccccc4)n3)cc2)S1 (stereo not given) ; field requested: Reduction
52%

Query (compound): O=C1NC(=O)C(Cc2ccc(OCc3nc(-c4ccccc4)cs3)cc2)S1 (stereo not given) ; field requested: Reduction
48%
